The entries below come with measured EC50 values attached.
- Assayed System: Toll-like receptor 2 (Homo sapiens)
- Protocol Summary: Agonist activity at human TLR2 expressed in HEK293 cells assessed as NF-kappaB induction measured soluble alkaline phosphatase after 12 hrs by spectrophotometric analysis
Measured Attribute: EC50 (nM)

>>> numeric_value("CCCCCCCCCCCCCCCC(=O)O[C@H](COC(=O)CNCCCNCCCCNCCCN)CSC[C@H](N)C(=O)N[C@@H](CO)C(=O)O")
3.23
>>> numeric_value("CCCCCCCCCCCCCCCC(=O)OC[C@H](C[Se]C[C@H](N)C(=O)N[C@@H](CO)C(=O)OC)OC(=O)CCCCCCCCCCCCCCC")
0.26

====

- Assayed System: Toll-like receptor 2 (Homo sapiens, UniProt O60603)
- Sequence (O60603 whole entry): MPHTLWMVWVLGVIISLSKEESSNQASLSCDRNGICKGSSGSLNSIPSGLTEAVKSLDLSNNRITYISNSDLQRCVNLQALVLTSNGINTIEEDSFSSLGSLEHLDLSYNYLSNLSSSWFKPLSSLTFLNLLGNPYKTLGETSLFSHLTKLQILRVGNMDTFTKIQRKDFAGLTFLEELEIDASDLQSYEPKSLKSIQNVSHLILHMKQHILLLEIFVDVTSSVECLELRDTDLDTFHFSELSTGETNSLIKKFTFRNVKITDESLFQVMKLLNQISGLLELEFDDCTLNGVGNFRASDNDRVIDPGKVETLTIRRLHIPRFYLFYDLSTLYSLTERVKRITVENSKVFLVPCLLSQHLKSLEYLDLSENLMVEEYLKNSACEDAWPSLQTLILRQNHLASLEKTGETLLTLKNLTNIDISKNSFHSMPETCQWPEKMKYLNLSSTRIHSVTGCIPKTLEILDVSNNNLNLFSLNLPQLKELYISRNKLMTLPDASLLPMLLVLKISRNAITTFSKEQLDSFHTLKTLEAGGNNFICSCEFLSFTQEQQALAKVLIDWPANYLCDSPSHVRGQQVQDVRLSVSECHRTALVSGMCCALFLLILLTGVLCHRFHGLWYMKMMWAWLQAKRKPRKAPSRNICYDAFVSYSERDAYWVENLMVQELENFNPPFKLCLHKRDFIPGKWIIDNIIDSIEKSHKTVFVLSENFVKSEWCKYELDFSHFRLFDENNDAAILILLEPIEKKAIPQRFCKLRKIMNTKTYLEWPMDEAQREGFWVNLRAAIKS
- Protocol Summary: Agonist activity at human TLR2 expressed in HEK293 cells assessed as NF-kappaB induction measured soluble alkaline phosphatase after 12 hrs by spectrophotometric analysis
The entries below come with measured EC50 values attached.
Measured Attribute: EC50 (nM)

>>> numeric_value("CCCCCCCCCCCCCCCC(=O)O[C@H](COC(=O)CNCCCOCCOCCOCCCN)CSC[C@H](N)C(=O)N[C@@H](CO)C(=O)O")
1.55
>>> numeric_value("CCCCCCCCCCCCCCCC(=O)O[C@H](COC(=O)CNCCCOCCOCCOCC)CSC[C@H](N)C(=O)N[C@@H](CO)C(=O)O")
2.11
>>> numeric_value("CCCCCCCCCCCC(=O)OC[C@H](CSC[C@H](N)C(=O)N[C@@H](CO)C(=O)O)OC(=O)CCCCCCCCCCC")
6.48
>>> numeric_value("CCCCCCCCCCCCCC(=O)OC[C@H](CSC[C@H](N)C(=O)N[C@@H](CO)C(=O)O)OC(=O)CCCCCCCCCCCCC")
0.56

====

- Assayed System: Toll-like receptor 2 (Homo sapiens, UniProt O60603)
- Protocol Summary: Agonist activity at human TLR2 expressed in HEK293 cells assessed as NF-kappaB induction measured soluble alkaline phosphatase after 12 hrs by spectrophotometric analysis
pEC50: −log10 of the molar value.
Measured Attribute: pEC50

>>> numeric_value("CCCCCCCCCCCCCCCC(=O)O[C@H](CO)CSC[C@H](N)C(=O)N[C@@H](CO)C(=O)O")
8.73
>>> numeric_value("CCCCCCCCCCCCCCCCCC(=O)OC[C@H](CSC[C@H](N)C(=O)N[C@@H](CO)C(=O)O)OC(=O)CCCCCCCCCCCCCCCCC")
8.83

====

The entries below come with measured pEC50 values attached.
- Assayed System: Toll-like receptor 2 (Homo sapiens, UniProt O60603)
- Protocol Summary: Agonist activity at human TLR2 expressed in HEK293 cells assessed as NF-kappaB induction measured soluble alkaline phosphatase after 12 hrs by spectrophotometric analysis
pEC50: −log10 of the molar value.
Measured Attribute: pEC50

>>> numeric_value("CCCCCCCCCCCCCCCC(=O)OCCSC[C@H](N)C(=O)N[C@@H](CO)C(=O)OC")
8.35
>>> numeric_value("CCCCCCCCCCCCCCCC(=O)OC[C@@H](O)CSC[C@H](N)C(=O)N[C@@H](CO)C(=O)O")
8.71
>>> numeric_value("CCCCC/C=C\\C/C=C\\CCCCCCCC(=O)OC[C@H](CSC[C@H](N)C(=O)NCC(=O)OC(C)C)OC(=O)CCCCCCC/C=C\\C/C=C\\CCCCC")
9.00
>>> numeric_value("CCCCCCCCCCCCCCCC(=O)OC[C@H](CSC[C@H](N)C(=O)NCC(=O)OC(C)C)OC(=O)CCCCCCCCCCCCCCC")
9.35
>>> numeric_value("CC/C=C\\C/C=C\\C/C=C\\CCCCCCCC(=O)OC[C@H](CSC[C@H](N)C(=O)NCC(=O)OC(C)C)OC(=O)CCCCCCC/C=C\\C/C=C\\C/C=C\\CC")
9.06
